The values you see were collected from patent US20230024096A1.

The reader will find reported Emax values listed item by item below.
Target: SMARCA2 (Homo sapiens)
Construct: endogenous in cells; host or cells: HT1080 (CRISPR HiBiT knock-in clone, generated in house)
Sequence (P51531 whole entry): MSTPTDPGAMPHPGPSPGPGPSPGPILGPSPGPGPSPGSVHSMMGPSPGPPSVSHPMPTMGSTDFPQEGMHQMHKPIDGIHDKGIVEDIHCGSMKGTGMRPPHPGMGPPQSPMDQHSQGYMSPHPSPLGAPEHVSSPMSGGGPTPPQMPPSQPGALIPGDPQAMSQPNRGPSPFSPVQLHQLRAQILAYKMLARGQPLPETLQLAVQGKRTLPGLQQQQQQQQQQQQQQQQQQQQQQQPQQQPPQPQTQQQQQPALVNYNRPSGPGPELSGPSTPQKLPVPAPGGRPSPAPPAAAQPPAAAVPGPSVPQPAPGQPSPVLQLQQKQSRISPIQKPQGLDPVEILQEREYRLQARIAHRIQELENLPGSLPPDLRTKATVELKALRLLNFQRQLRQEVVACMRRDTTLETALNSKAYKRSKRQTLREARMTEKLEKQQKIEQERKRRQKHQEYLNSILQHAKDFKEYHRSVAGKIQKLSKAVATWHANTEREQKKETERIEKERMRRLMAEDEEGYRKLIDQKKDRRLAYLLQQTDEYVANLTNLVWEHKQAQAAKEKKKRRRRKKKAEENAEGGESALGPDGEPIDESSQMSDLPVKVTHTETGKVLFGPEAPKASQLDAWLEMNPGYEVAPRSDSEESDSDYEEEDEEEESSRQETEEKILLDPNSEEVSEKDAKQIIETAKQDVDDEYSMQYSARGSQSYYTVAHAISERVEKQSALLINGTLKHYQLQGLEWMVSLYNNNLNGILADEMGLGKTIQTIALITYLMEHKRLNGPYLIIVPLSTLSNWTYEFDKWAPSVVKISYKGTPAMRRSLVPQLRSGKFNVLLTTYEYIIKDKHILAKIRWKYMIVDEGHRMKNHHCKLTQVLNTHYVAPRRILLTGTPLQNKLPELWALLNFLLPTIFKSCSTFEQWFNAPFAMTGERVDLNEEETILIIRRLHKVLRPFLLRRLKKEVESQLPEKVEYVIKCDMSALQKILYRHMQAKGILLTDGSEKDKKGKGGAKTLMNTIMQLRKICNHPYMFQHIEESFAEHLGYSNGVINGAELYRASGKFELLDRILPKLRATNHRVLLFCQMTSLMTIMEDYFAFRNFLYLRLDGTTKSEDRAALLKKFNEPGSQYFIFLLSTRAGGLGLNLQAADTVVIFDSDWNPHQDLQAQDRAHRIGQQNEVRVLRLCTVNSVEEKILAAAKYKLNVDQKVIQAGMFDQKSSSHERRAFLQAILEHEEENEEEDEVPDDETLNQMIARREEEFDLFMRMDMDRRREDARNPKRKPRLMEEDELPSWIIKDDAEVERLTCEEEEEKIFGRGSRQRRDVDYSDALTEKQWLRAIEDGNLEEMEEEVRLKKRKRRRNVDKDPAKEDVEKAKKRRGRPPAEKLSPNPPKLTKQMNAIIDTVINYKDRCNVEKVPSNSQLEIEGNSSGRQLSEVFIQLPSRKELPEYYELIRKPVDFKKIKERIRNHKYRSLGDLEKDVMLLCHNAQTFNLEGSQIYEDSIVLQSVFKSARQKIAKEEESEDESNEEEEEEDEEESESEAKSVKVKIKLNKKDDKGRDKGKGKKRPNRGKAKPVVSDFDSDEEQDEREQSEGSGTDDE
Test: SMARCA2 HiBiT degradation assay (cellular)
Type: cell-based
Settings: A549, 6 h incubation; Emax = amount of residual protein remaining in the cell following compound treatment; table head names A549
attribute.measured: Emax (%)

INSERT INTO results (compound, target_system, measured_value) VALUES
  ('Nc1nnc(-c2ccccc2O)cc1N1CC2CCC(C1)N2c1cccc(OCCN2CCN(CC3CCN(c4ccc5c(c4)C(=O)N(C4CCC(=O)NC4=O)C5=O)CC3)CC2)c1 (racemic)', 'SMARCA2 (Homo sapiens)', 29),
  ('CC(C)(Nc1cccc2c1C(=O)N(C1CCC(=O)NC1=O)C2=O)c1cn(CCCCCCCCCN2CCN(c3ccc(N4CCCC(Oc5cc(-c6ccccc6O)nnc5N)C4)cc3)CC2)nn1 (stereo not drawn)', 'SMARCA2 (Homo sapiens)', 37),
  ('Nc1nnc(-c2ccccc2O)cc1N1CC2CCC(C1)N2c1cccc(CC2CCN(C(=O)CCNc3cccc4c3C(=O)N(C3CCC(=O)NC3=O)C4=O)CC2)c1 (racemic)', 'SMARCA2 (Homo sapiens)', 59);
